All values here come from ChEMBL document CHEMBL1961873.

As shown below, each of these compounds has a reported inhibition value.
Target: Tyrosine-protein kinase ZAP-70 (Homo sapiens)
Sequence (whole entry): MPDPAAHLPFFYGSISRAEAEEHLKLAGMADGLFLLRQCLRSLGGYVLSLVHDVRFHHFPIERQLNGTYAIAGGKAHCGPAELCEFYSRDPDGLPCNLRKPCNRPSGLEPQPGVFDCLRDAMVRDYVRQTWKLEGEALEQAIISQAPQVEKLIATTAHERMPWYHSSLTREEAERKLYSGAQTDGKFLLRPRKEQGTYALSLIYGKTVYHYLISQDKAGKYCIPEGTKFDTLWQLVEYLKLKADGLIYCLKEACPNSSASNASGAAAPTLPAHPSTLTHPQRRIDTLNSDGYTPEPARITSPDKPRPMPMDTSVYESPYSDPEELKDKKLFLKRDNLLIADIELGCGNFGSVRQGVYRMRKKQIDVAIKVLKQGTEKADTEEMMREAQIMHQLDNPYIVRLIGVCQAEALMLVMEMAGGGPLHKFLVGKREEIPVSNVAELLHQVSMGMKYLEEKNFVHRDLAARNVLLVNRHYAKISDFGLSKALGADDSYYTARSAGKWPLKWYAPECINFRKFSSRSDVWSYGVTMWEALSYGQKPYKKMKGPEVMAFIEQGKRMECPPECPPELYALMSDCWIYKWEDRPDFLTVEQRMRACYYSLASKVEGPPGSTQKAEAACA
Settings: at 1 µM
Description: GSK_PKIS: ZAP70 mean inhibition at 1 uM [Nanosyn]

{"columns": ["COMPOUND", "TEST_TARGET", "inhibition / %"],
 "data": [
  ["NS(=O)(=O)c1ccc(N/N=C2\\C(=O)Nc3ccc(C(=O)NCc4ccncc4)cc32)cc1", "Tyrosine-protein kinase ZAP-70 (Homo sapiens)", 3.8],
  ["CCCNc1cccc(-n2ncc3c(N/N=C/c4ccncc4)ncnc32)c1", "Tyrosine-protein kinase ZAP-70 (Homo sapiens)", 3.95],
  ["CC(C)c1ccc(-c2cc(-c3c[nH]nc3-c3ccccn3)ccn2)cc1", "Tyrosine-protein kinase ZAP-70 (Homo sapiens)", 1.31],
  ["CS(=O)(=O)CCNCc1ccoc1-c1ccc2ncnc(Nc3ccc(OCc4ccccc4)cc3)c2c1", "Tyrosine-protein kinase ZAP-70 (Homo sapiens)", 2.26],
  ["Cc1nnc(-c2cccc(-c3ccc(C(=O)NCC4CC4)cc3)c2)o1", "Tyrosine-protein kinase ZAP-70 (Homo sapiens)", 7.42],
  ["CS(=O)(=O)CCNCc1ccc(-c2ccc3ncnc(Nc4ccc(OCc5ccccc5)cc4)c3c2)o1", "Tyrosine-protein kinase ZAP-70 (Homo sapiens)", 2.51],
  ["COc1ccccc1-c1cc(/C=C2\\C(=O)Nc3ncc(Br)cc32)cc(Br)c1O", "Tyrosine-protein kinase ZAP-70 (Homo sapiens)", 6.67],
  ["CS(=O)(=O)Nc1ccc(-c2cc(-c3ccccc3)cc(C(N)=O)c2N)cc1", "Tyrosine-protein kinase ZAP-70 (Homo sapiens)", -3.4],
  ["CCS(=O)(=O)c1ccc(OC)c(Nc2ncc(-c3cccc(C(C)=O)c3)o2)c1", "Tyrosine-protein kinase ZAP-70 (Homo sapiens)", 1.3],
  ["Fc1ccc(Nc2nccc(-c3c(-c4ccc(C(F)(F)F)cc4)nn4ncccc34)n2)cc1F", "Tyrosine-protein kinase ZAP-70 (Homo sapiens)", 2.38],
  ["O=C(O[C@H]1CN[C@H](C#Cc2cc3ncnc(Nc4ccc(OCc5cccc(F)c5)c(Cl)c4)c3s2)C1)N1CCOCC1", "Tyrosine-protein kinase ZAP-70 (Homo sapiens)", 0.2],
  ["COc1cc(N2CCN(C(C)C)CC2)ccc1Nc1nc(Nc2cccc3ncccc23)c2cc[nH]c2n1", "Tyrosine-protein kinase ZAP-70 (Homo sapiens)", -0.16],
  ["CCOc1ccc2c(-c3ccnc(Nc4cc(OC)cc(C(F)(F)F)c4)n3)cnn2n1", "Tyrosine-protein kinase ZAP-70 (Homo sapiens)", 3.29],
  ["N#Cc1ccc2c(-c3ccnc(NC4CC4)n3)c(-c3ccc(F)cc3)nn2c1", "Tyrosine-protein kinase ZAP-70 (Homo sapiens)", 1.15],
  ["CN1CCC(n2cnc(-c3ccc(F)cc3)c2-c2ccnc(NCCO)n2)CC1", "Tyrosine-protein kinase ZAP-70 (Homo sapiens)", -0.3],
  ["CC1=C(C(=O)Nc2ccc3[nH]nc(C)c3c2)C(c2ccc(C(F)(F)F)cc2)CC(=O)N1 (centres undefined)", "Tyrosine-protein kinase ZAP-70 (Homo sapiens)", 2.13],
  ["O=C(O[C@H]1CN[C@H](C#Cc2cc3ncnc(Nc4ccc5c(ccn5Cc5cc(F)ccc5F)c4)c3s2)C1)N1CCOCC1", "Tyrosine-protein kinase ZAP-70 (Homo sapiens)", 2.72],
  ["c1cnn2ncc(-c3ccnc(NCCCN4CCOCC4)n3)c2c1", "Tyrosine-protein kinase ZAP-70 (Homo sapiens)", 2.9],
  ["CCn1c(-c2nonc2N)nc2cncc(C(=O)NCCNC)c21", "Tyrosine-protein kinase ZAP-70 (Homo sapiens)", 1.01]
]}
